biological target: Cytochrome P450 2D6 (Homo sapiens) (UniProt P10635); experiment: Cytochrome panel assay with activity outcomes; conditions: recombinant CYP, pro-luciferin dealkylation, luminescence, p450-cyp2d6; series mostly up to 57.1 µM; on activity, negative = inhibition: on the % scale 0 is the no-effect control and ±100 the full control effect
Sequence (P10635 whole entry, looked up): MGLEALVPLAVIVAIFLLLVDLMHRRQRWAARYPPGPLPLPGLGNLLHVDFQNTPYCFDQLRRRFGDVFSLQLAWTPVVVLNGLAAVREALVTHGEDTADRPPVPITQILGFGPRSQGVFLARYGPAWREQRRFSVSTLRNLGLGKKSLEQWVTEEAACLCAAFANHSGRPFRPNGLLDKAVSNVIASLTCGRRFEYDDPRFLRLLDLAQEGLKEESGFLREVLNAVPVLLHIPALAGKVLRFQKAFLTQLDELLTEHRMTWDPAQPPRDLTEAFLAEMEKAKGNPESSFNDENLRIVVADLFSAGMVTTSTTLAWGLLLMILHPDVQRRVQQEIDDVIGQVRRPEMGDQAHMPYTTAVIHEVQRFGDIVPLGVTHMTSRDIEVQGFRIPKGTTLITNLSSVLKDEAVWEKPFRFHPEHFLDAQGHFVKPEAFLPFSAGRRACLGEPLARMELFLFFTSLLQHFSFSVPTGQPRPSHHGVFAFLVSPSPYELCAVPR
Screen size: about 16,000 compounds; about 2,600 (16%) were called active. Roughly 20% stayed inconclusive and do not appear here. The list comes from a sample in which actives are over-represented; it also holds close analogues and randomly drawn compounds.
assay readout: activity, negative = inhibition

Examples with answers:
| compound | subject of test | activity, negative = inhibition |
| --- | --- | --- |
| O=C(O)C[C@H]1NCc2cc3ccccc3nc21 | Cytochrome P450 2D6 (Homo sapiens) (UniProt P10635) | 3.21% [at 11.4 µM] (inactive) |
| Oc1cccc2cccnc12 | Cytochrome P450 2D6 (Homo sapiens) (UniProt P10635) | 8.63% [at 11.4 µM] (inactive) |
| Nc1ccccc1O.O.O=C(O)[C@H]1[O][Sb][O][C@H]1C(=O)O | Cytochrome P450 2D6 (Homo sapiens) (UniProt P10635) | -5.13% [at 11.4 µM] (inactive) |

Req: Please look up its activity, negative = inhibition: `Cc1ccc(OP(=O)(Oc2ccc(C)cc2)N2C=Cc3ccccc3[C@H]2C#N)cc1`
Resp: -6.26% [at 11.4 µM] (inactive)

====

biological target: Cytochrome P450 2D6 (Homo sapiens); experiment: Cytochrome panel assay with activity outcomes; settings: recombinant CYP, pro-luciferin dealkylation, luminescence, p450-cyp2d6; series mostly up to 57.1 µM
In all, about 16,000 compounds went through this assay and about 2,600 (16%) were called active. Another 20% or so got no clear call; they are omitted. Many of the other results were omitted from the sample, so actives are more common in it than they were.
assay readout: AC50

Worked examples, 4 compounds total:
| smiles representation | reading |
| --- | --- |
| CCNC(=O)[C@@H]1O[C@@H](n2cnc3c(N)ncnc32)[C@@H](O)[C@H]1O | inactive |
| NCC[C@H](O)C(=O)N[C@H]1C[C@@H](N)[C@@H](O[C@H]2O[C@@H](CN)[C@@H](O)[C@@H](O)[C@@H]2N)[C@@H](O[C@H]2O[C@@H](CO)[C@@H](O)[C@@H]2O)[C@@H]1O | inactive |
| c1cncc([C@@H]2CCCCN2)c1 | inactive |
| CC(C)C[C@H](NP(=O)(O)O[C@@H]1O[C@@H](C)[C@@H](O)[C@@H](O)[C@H]1O)C(=O)N[C@@H](Cc1c[nH]c2ccccc12)C(=O)O | inactive |

// below: AC50 requested for another compound
Req: Request the reported AC50 associated with `COCCn1c(SCc2nc3sc(C(=O)OC)c(C)c3c(=O)[nH]2)nc2ccccc21`
Resp: 10 µM (active)

====

biological target: Cytochrome P450 2D6 (Homo sapiens); test: Cytochrome panel assay with activity outcomes; conditions: recombinant CYP, pro-luciferin dealkylation, luminescence, p450-cyp2d6; series mostly up to 57.1 µM
Among all 16,000 compounds or so, about 2,600 (16%) were called active. Roughly 20% stayed inconclusive and do not appear here. The call rests on the fitted dose curve; in most records, active means well fitted curve in the direction sought with a large enough effect; inconclusive means small, poorly fitted or top-dose-only effect, or effect the other way; inactive means no such curve, though single readings can be large or run the other way. Many of the other results were omitted from the sample, so actives are more common in it than they were.
// classify into active, inactive

Illustrative cases are given below, each with its answer.
| molecule | subject of test | group label |
| --- | --- | --- |
| O=C(Nc1cccc(C(F)(F)F)c1)c1cccn(Cc2ccc3c(c2)OC(F)(F)O3)c1=O | Cytochrome P450 2D6 (Homo sapiens) | inactive |
| NC[C@H](O)c1ccc(O)cc1 | Cytochrome P450 2D6 (Homo sapiens) | inactive |
| CCC12C=CCN3CCC4(c5cc(Br)c(OC)cc5N(C)C4C(O)(C(=O)OC)C1OC(C)=O)C32 (configuration not stated) | Cytochrome P450 2D6 (Homo sapiens) | active |
| C[C@@H]1O[C@H](C[N+](C)(C)C)CS1 | Cytochrome P450 2D6 (Homo sapiens) | inactive |
| CCN(CC)CC#CCOC(=O)[C@@](O)(c1ccccc1)C1CCCCC1 | Cytochrome P450 2D6 (Homo sapiens) | active |
| O=[N+]([O-])O[C@H]1CO[C@H]2[C@H]1OC[C@@H]2O[N+](=O)[O-] | Cytochrome P450 2D6 (Homo sapiens) | inactive |

Req: Give the logged outcome of this assay for the following molecule: `NCc1cc(=O)[nH]o1`
Resp: inactive

Req: Field: outcome | Entry: `O=c1[nH]c(=O)n(CCc2ccc(F)cc2)c(O)c1C=NCCCN1CCOCC1`
Resp: inactive

Req: I'd appreciate the recorded outcome for CC[C@@H](C)[C@H]1O[C@]2(CC[C@@H]1C)C[C@@H]1C[C@H](C/C=C(/C)[C@H](O[C@@H]3C[C@H](OC)[C@H](O[C@@H]4C[C@H](OC)[C@@H](O)[C@H](C)O4)[C@H](C)O3)[C@@H](C)/C=C\C=C3CO[C@@H]4[C@H](O)C(C)=C[C@@H](C(=O)O1)[C@]34O)O2 (tested in a mixture with another compound) from this test.
Resp: inactive

====

molecular target: Cytochrome P450 2D6 (Homo sapiens) (UniProt P10635); experiment: Cytochrome panel assay with activity outcomes; conditions: recombinant CYP, pro-luciferin dealkylation, luminescence, p450-cyp2d6; series mostly up to 57.1 µM
The whole screen tested about 16,000 compounds, of which about 2,600 (16%) were called active. Not shown: some 20% with an inconclusive outcome. The call rests on the fitted dose curve; in most records, active means well fitted curve in the direction sought with a large enough effect; inconclusive means small, poorly fitted or top-dose-only effect, or effect the other way; inactive means no such curve, though single readings can be large or run the other way. The entries come from a sample that favours actives as a whole.
Would you mind answering with one of these outcomes? Y = active, N = inactive

| smiles representation | group label |
| --- | --- |
| S=C(S)N1CCCC1 | N |
| CN1CCC2(CC1)CCN(C(=O)Oc1ccccc1)CC2 | N |
| N[C@H](CCl)C(=O)O | N |

Req: Give the logged outcome of this assay for the following compound: `C[C@@]12CC(=O)[C@H]3[C@@H](CCC4=CC(=O)CC[C@]43C)[C@H]1CCC2=O`
Resp: N

Req: Assay result, entry `CCCN[C@@H]1CCc2c(OC)cccc2[C@@H]1C` — outcome?
Resp: Y

Req: What classification did `CC(C)C[C@H]1C(=O)N2CCC[C@@H]2[C@@]2(O)O[C@](NC(=O)[C@@H]3C=C4c5cccc6[nH]cc(c56)C[C@@H]4N(C)C3)(C(C)C)C(=O)N12` end up with in this test?
Resp: N

====

target: Cytochrome P450 2D6 (Homo sapiens); test: Cytochrome panel assay with activity outcomes; details: recombinant CYP, pro-luciferin dealkylation, luminescence, p450-cyp2d6; series mostly up to 57.1 µM
In all, about 16,000 compounds went through this assay and about 2,600 (16%) were called active. Inconclusive results (about 20%) are left out. The call rests on the fitted dose curve; in most records, active means well fitted curve in the direction sought with a large enough effect; inconclusive means small, poorly fitted or top-dose-only effect, or effect the other way; inactive means no such curve, though single readings can be large or run the other way. For the sample, actives were picked, then their nearest neighbours and some compounds at random.
Please reply with one of these outcomes: active, inactive

| compound | group label |
| --- | --- |
| CN1[C@@H](C[C@@H](O)c2ccccc2)CCC[C@@H]1C[C@H](O)c1ccccc1 | active |
| O=C(O)c1nn(Cc2ccc(Cl)cc2Cl)c2ccccc12 | inactive |
| Cn1cc(C(=O)C(=O)N[C@H]2CN3CCC2CC3)c2ccccc21 | active |
| COCCNC(=S)NC1CC2CCCC(C1)N2Cc1cccs1 (stereo not given) | active |
| S=C(Nc1ccc(Cl)cc1)NC1CC2CCCC(C1)N2C1CCCC1 (stereo not given) | active |

Req: What did this assay record as the result for `CCNC[C@H](O)c1cccc(O)c1` ?
Resp: inactive

Req: Lab log entry: `C[C@@H]1O[C@H](O[C@@H]2CC[C@@]3(C=O)[C@H]4CC[C@@]5(C)[C@@H](C6=CC(=O)OC6)CC[C@@]5(O)[C@@H]4CC[C@]3(O)C2)C[C@H](O)[C@@H]1O` — outcome as called in the assay?
Resp: inactive

Req: Answer briefly: the call reported for CC1CN=C(Nc2cccc3ccccc23)S1 (stereo not given) in this assay.
Resp: active

Req: Which result was noted for this compound in the test: `Nc1nc(N)c2nc(CNc3ccc(C(=O)N[C@H](CCC(=O)O)C(=O)O)cc3)cnc2n1`
Resp: inactive

Req: Just curious, what result did `Cc1ncsc1CCCl` get here?
Resp: active

Req: How was `NCC#Cc1ccccc1` classified in this test?
Resp: inactive

Req: So what was the verdict on `CCOC(=O)c1ncn2c1[C@H]1CCCN1C(=O)c1cc(OC)ccc1-2` in this test?
Resp: inactive

Req: Hey, what did the test say about `CC(C)C(=O)Nc1ccc([N+](=O)[O-])c(C(F)(F)F)c1` ?
Resp: inactive

Req: Field: outcome | Entry: CCOP(=O)(OCC)C(NC(=O)C(Cl)Cl)C(Cl)(Cl)Cl (stereo not given)
Resp: inactive

Req: Per the assay record, what outcome was assigned to Cc1oc(-c2ccccc2F)nc1CS(=O)CC(=O)N1CCC2(CC1)OCCO2 (stereo not given) ?
Resp: inactive

Origin of the recorded values: PubChem BioAssay AID1851
